system: T1, Anti-CD28 Fab (SEQ ID NOs: 696, 697)
T1 construct: In the phage ELISA the Fab was biotinylated and captured on neutravidin coated plates
T1 sequence (VH, as listed by the source, chain 1 of 2): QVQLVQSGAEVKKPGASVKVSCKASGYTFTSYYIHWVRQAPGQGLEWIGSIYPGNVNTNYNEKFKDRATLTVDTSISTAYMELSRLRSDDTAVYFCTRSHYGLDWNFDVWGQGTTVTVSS
T1 sequence (VL, as listed by the source, chain 2 of 2): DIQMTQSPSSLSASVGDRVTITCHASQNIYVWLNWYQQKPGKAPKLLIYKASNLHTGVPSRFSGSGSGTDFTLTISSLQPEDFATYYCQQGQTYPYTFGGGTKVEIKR
measurement protocol: phage binding ELISA; clonal phage on plate-captured anti-CD28 Fab pre-incubated with CD28 antigen (competitor)
Below is a list of entries, each paired with its recorded Anti-CD28 Fab signal in the presence of CD28 value.
metric name: Anti-CD28 Fab signal in the presence of CD28

binder: LCEEFADYPWPMCL [Phage-1412 (Peptide-92 library clone)]
readout number: 0.06
--
binder: TCAAGATYSWPMCF [Phage-1413 (Peptide-92 library clone)]
readout number: 0.07
--
binder: TCAAGAMWHWPVCL [Phage-1409 (Peptide-92 library clone)]
readout number: 0.09
--
binder: LCAAGFKYPWPLCL [Phage-1411 (Peptide-92 library clone)]
readout number: 0.07
--
binder: TCSAGASWAWPWCF [Phage-1408 (Peptide-92 library clone)]
readout number: 0.08
--
binder: TCAAGATYKWPACL [Phage-1405 (Peptide-92 library clone)]
readout number: 0.09
--
binder: TCAAGASYAWPWCL [Phage-1407 (Peptide-92 library clone)]
readout number: 0.08
--
binder: LCAAGASYPWPTCL [Phage-1414 (Peptide-92 library clone)]
readout number: 0.1
--
binder: MCSAGAMYPWPTCL [Phage-1406 (Peptide-92 library clone)]
readout number: 0.08
--
binder: TCSAGFHYEWPRCL [Phage-1410 (Peptide-92 library clone)]
readout number: 0.05
